Sourced from patent US7094798B1

target: human Wee1 kinase aa215-647 (Homo sapiens, UniProt P30291); construct: human Wee1 kinase aa215-647; experiment: Wee1 inhibition filter binding assay (OY); details: isolated Wee1 kinase, Poly Ornithine:Tyrosine (4:1) substrate; read-out: WEE1OY IC50
Sequence (P30291 215-646 limits assumed): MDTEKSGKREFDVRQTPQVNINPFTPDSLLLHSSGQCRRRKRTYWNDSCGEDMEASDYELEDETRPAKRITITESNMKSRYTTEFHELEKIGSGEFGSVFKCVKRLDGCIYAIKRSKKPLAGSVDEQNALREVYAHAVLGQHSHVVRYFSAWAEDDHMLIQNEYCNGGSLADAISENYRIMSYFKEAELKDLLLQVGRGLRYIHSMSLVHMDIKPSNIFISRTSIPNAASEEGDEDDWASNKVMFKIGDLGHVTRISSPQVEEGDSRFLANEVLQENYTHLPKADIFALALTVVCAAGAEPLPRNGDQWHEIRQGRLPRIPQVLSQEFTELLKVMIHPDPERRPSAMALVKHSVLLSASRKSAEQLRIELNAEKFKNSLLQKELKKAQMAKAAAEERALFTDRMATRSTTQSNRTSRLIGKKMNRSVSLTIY
pIC50: −log10 of the molar value.
property_name: pIC50

INSERT INTO assay_data (compound, property_name, experimental_result) VALUES
  ('COc1ccc2[nH]c3c(c2c1)C1C(=O)NC(=O)C1C(c1ccccc1Cl)C3 (mixture of isomers)', 'pIC50', 7.96);
